# PROTOCOL_DETAILS: Oral pharmacokinetics and tissue distribution of PTG-630 (blood brain barrier penetration)
# Format: in vivo, Sprague-Dawley rats
# TEST_CONTEXT: male, Sprague-Dawley, rat, brain, po
ENDPOINT: half-life (h)
State the answer as a number, implicitly in h.

Please fill in: half-life reported for `Cc1ncc(CN2CCOCC2)c(-c2ncc[nH]2)c1O` = 4.53

====

# PROTOCOL_DETAILS: Oral pharmacokinetics and tissue distribution of PTG-630 (blood brain barrier penetration)
# Format: in vivo, Sprague-Dawley rats
# TEST_CONTEXT: male, Sprague-Dawley, rat; Muscle, 1.0 h, PO, mean
ENDPOINT: concentration at 1 h (ng/mL)
State the answer as a number, implicitly in ng/mL.

Please fill in: concentration at 1 h reported for `Cc1ncc(CN2CCOCC2)c(-c2ncc[nH]2)c1O` = 1030

====

# PROTOCOL_DETAILS: Oral pharmacokinetics and tissue distribution of PTG-630 (blood brain barrier penetration)
# Assay type: in vivo, Sprague-Dawley rats
# TEST_CONTEXT: male, Sprague-Dawley, rat, sciatic nerve, po
ENDPOINT: Cmax (ng/mL)
State the answer as a number, implicitly in ng/mL.

Please fill in: Cmax reported for Cc1ncc(CN2CCOCC2)c(-c2ncc[nH]2)c1O [PTG-630] = 1830

====

# PROTOCOL_DETAILS: Oral pharmacokinetics and tissue distribution of PTG-630 (blood brain barrier penetration)
# Assay type: in vivo, Sprague-Dawley rats
# TEST_CONTEXT: male, Sprague-Dawley, rat, brain, po
ENDPOINT: Tmax (h)
State the answer as a number, implicitly in h.

Please fill in: Tmax reported for Cc1ncc(CN2CCOCC2)c(-c2ncc[nH]2)c1O [PTG-630] = 1

====

# PROTOCOL_DETAILS: Oral pharmacokinetics and tissue distribution of PTG-630 (blood brain barrier penetration)
# Type: in vivo, Sprague-Dawley rats
# TEST_CONTEXT: male, Sprague-Dawley, rat; Liver, 1.0 h, PO, mean
ENDPOINT: concentration at 1 h (ng/mL)
State the answer as a number, implicitly in ng/mL.

Please fill in: concentration at 1 h reported for `Cc1ncc(CN2CCOCC2)c(-c2ncc[nH]2)c1O` = 6350

====

# PROTOCOL_DETAILS: Oral pharmacokinetics and tissue distribution of PTG-630 (blood brain barrier penetration)
# Assay type: in vivo, Sprague-Dawley rats
# TEST_CONTEXT: male, Sprague-Dawley, rat; Kidney, 4.0 h, PO, mean
ENDPOINT: concentration at 4 h (ng/mL)
State the answer as a number, implicitly in ng/mL.

Please fill in: concentration at 4 h reported for `Cc1ncc(CN2CCOCC2)c(-c2ncc[nH]2)c1O` = 1520

====

# PROTOCOL_DETAILS: Oral pharmacokinetics and tissue distribution of PTG-630 (blood brain barrier penetration)
# Format: in vivo, Sprague-Dawley rats
# Design: concentration or dose not given beside the values
# TEST_CONTEXT: male, Sprague-Dawley, rat, liver, po
ENDPOINT: AUC(0-t) (ng·h/mL)
State the answer as a number, implicitly in ng·h/mL.

Please fill in: AUC(0-t) reported for Cc1ncc(CN2CCOCC2)c(-c2ncc[nH]2)c1O [PTG-630] = 20700

====

# PROTOCOL_DETAILS: Oral pharmacokinetics and tissue distribution of PTG-630 (blood brain barrier penetration)
# Assay type: in vivo, Sprague-Dawley rats
# TEST_CONTEXT: male, Sprague-Dawley, rat, sciatic nerve, po
ENDPOINT: Tmax (h)
State the answer as a number, implicitly in h.

Please fill in: Tmax reported for `Cc1ncc(CN2CCOCC2)c(-c2ncc[nH]2)c1O` = 1

====

# PROTOCOL_DETAILS: Oral pharmacokinetics and tissue distribution of PTG-630 (blood brain barrier penetration)
# Format: in vivo, Sprague-Dawley rats
# Design: concentration or dose not given beside the values
# TEST_CONTEXT: male, Sprague-Dawley, rat, muscle, po
ENDPOINT: AUC(0-inf) (ng·h/mL)
State the answer as a number, implicitly in ng·h/mL.

Please fill in: AUC(0-inf) reported for `Cc1ncc(CN2CCOCC2)c(-c2ncc[nH]2)c1O` = 3820

====

# PROTOCOL_DETAILS: Oral pharmacokinetics and tissue distribution of PTG-630 (blood brain barrier penetration)
# Format: in vivo, Sprague-Dawley rats
# TEST_CONTEXT: male, Sprague-Dawley, rat; Muscle, 0.50 h, PO, mean
ENDPOINT: concentration at 0.5 h (ng/mL)
State the answer as a number, implicitly in ng/mL.

Please fill in: concentration at 0.5 h reported for Cc1ncc(CN2CCOCC2)c(-c2ncc[nH]2)c1O [PTG-630] = 775

====

# PROTOCOL_DETAILS: Oral pharmacokinetics and tissue distribution of PTG-630 (blood brain barrier penetration)
# Type: in vivo, Sprague-Dawley rats
# TEST_CONTEXT: male, Sprague-Dawley, rat, plasma, po
ENDPOINT: Cmax (ng/mL)
State the answer as a number, implicitly in ng/mL.

Please fill in: Cmax reported for `Cc1ncc(CN2CCOCC2)c(-c2ncc[nH]2)c1O` = 1160

====

# PROTOCOL_DETAILS: Oral pharmacokinetics and tissue distribution of PTG-630 (blood brain barrier penetration)
# Assay type: in vivo, Sprague-Dawley rats
# Parameters: concentration or dose not given beside the values
# TEST_CONTEXT: male, Sprague-Dawley, rat, liver, po
ENDPOINT: AUC(0-inf) (ng·h/mL)
State the answer as a number, implicitly in ng·h/mL.

Please fill in: AUC(0-inf) reported for Cc1ncc(CN2CCOCC2)c(-c2ncc[nH]2)c1O [PTG-630] = 22000

====

# PROTOCOL_DETAILS: Oral pharmacokinetics and tissue distribution of PTG-630 (blood brain barrier penetration)
# Format: in vivo, Sprague-Dawley rats
# TEST_CONTEXT: male, Sprague-Dawley, rat; Brain, 2.0 h, PO, mean
ENDPOINT: concentration at 2 h (µg/mL)
State the answer as a number, implicitly in µg/mL.

Please fill in: concentration at 2 h reported for Cc1ncc(CN2CCOCC2)c(-c2ncc[nH]2)c1O [PTG-630] = 0.45

====

# PROTOCOL_DETAILS: Oral pharmacokinetics and tissue distribution of PTG-630 (blood brain barrier penetration)
# Assay type: in vivo, Sprague-Dawley rats
# TEST_CONTEXT: male, Sprague-Dawley, rat; tissues, comparable to plasma, PO
ENDPOINT: Tmax (h)
State the answer as a number, implicitly in h.

Please fill in: Tmax reported for `Cc1ncc(CN2CCOCC2)c(-c2ncc[nH]2)c1O` = 1
